Source listed as ChEMBL document CHEMBL4033793.

Target: UniProtKB Q9NXA8
Assay: Inhibition of human recombinant N-terminal Strep2-tagged SIRT5 expressed in Escherichia coli BL21 (DE3) using Abz-GVLK(glutaryl)AY(NO2)GV-NH2 as substrate in presence of NAD+ by fluorescence assay
Residues, ends and D or L forms follow the SMILES beside them. *: point of attachment. X38 = O=C(O)[C@H](CC(=O)*)Sc1cccc2ccccc12; X1 = O=C(O)[C@H](CC(=O)*)Sc1ccc2ccccc2c1; X61 = O=C(O)[C@@H](CC(=O)*)Sc1cccc(Cl)c1; X19 = O=C(O)[C@H](CC(=O)*)Sc1ccc(Cl)cc1; X53 = O=C(O)[C@H](CC(=O)*)Sc1ccccc1Cl; X4 = O=C(O)C(CC(=O)*)Cc1ccccc1; Bz = O=C(c1ccccc1)*
Measured pIC50, listed per entry.
Interpret pIC50 as the negative base-10 log of the concentration measured in mol/L.

Worked examples follow.
O=C(C[C@H](Sc1ccc2ccccc2c1)C(=O)O)Nc1ccccc1 : 3.80
CC(C)C[C@H](NC(=O)[C@@H](NC(=O)CNC(=O)c1ccccc1)C(C)C)C(=O)N[C@@H](CCCCNC(=O)C[C@H](Sc1cccc2ccccc12)C(=O)O)C(=O)N[C@@H](CCC(=O)O)C(=O)N[C@@H](Cc1ccc(O)cc1)C(=O)NCC(=O)N[C@H](C(N)=O)C(C)C (Bz-GVLK(X38)EYGV-NH2) : 7.02
CC(C)C[C@H](NC(=O)[C@@H](NC(=O)CNC(=O)c1ccccc1)C(C)C)C(=O)N[C@@H](CCCCNC(=O)C[C@H](Sc1ccc2ccccc2c1)C(=O)O)C(=O)N[C@@H](CCC(=O)O)C(=O)N[C@@H](Cc1ccc(O)cc1)C(=O)NCC(=O)N[C@H](C(N)=O)C(C)C (Bz-GVLK(X1)EYGV-NH2) : 7.52
CC(=O)N[C@@H](CC(C)C)C(=O)N[C@@H](CCCCNC(=O)CC(Sc1ccc2ccccc2c1)C(=O)O)C(=O)N[C@@H](C)C(N)=O (stereo not given in full) : 5.97
CC(C)C[C@H](NC(=O)[C@@H](NC(=O)CNC(=O)c1ccccc1)C(C)C)C(=O)N[C@@H](CCCCNC(=O)C[C@H](Sc1ccccc1Cl)C(=O)O)C(=O)N[C@@H](CCC(=O)O)C(=O)N[C@@H](Cc1ccc(O)cc1)C(=O)NCC(=O)N[C@H](C(N)=O)C(C)C (Bz-GVLK(X53)EYGV-NH2) : 6.07

Documented pIC50 of CC(C)C[C@H](NC(=O)[C@@H](NC(=O)CNC(=O)c1ccccc1)C(C)C)C(=O)N[C@@H](CCCCNC(=O)C[C@@H](Sc1cccc(Cl)c1)C(=O)O)C(=O)N[C@@H](CCC(=O)O)C(=O)N[C@@H](Cc1ccc(O)cc1)C(=O)NCC(=O)N[C@H](C(N)=O)C(C)C (Bz-GVLK(X61)EYGV-NH2) : 5.86

Documented pIC50 of CC(C)C[C@H](NC(=O)[C@@H](NC(=O)CNC(=O)c1ccccc1)C(C)C)C(=O)N[C@@H](CCCCNC(=O)C[C@H](Sc1ccc(Cl)cc1)C(=O)O)C(=O)N[C@@H](CCC(=O)O)C(=O)N[C@@H](Cc1ccc(O)cc1)C(=O)NCC(=O)N[C@H](C(N)=O)C(C)C (Bz-GVLK(X19)EYGV-NH2) : 6.99

Documented pIC50 of CC(=O)N[C@@H](CC(C)C)C(=O)N[C@@H](CCCCNC(=O)C[C@H](Sc1ccc2ccccc2c1)C(=O)O)C(=O)N[C@@H](C)C(N)=O : 6.46

Documented pIC50 of CC(C)C[C@H](NC(=O)[C@@H](NC(=O)CNC(=O)c1ccccc1)C(C)C)C(=O)N[C@@H](CCCCNC(=O)CC(Cc1ccccc1)C(=O)O)C(=O)N[C@@H](CCC(=O)O)C(=O)N[C@@H](Cc1ccc(O)cc1)C(=O)NCC(=O)N[C@H](C(N)=O)C(C)C (stereo not given in full) (Bz-GVLK(X4)EYGV-NH2) : 5.95

----------
Target: NAD-dependent protein deacylase sirtuin-5, mitochondrial (Homo sapiens, UniProt Q9NXA8)
Sequence (Q9NXA8 whole entry): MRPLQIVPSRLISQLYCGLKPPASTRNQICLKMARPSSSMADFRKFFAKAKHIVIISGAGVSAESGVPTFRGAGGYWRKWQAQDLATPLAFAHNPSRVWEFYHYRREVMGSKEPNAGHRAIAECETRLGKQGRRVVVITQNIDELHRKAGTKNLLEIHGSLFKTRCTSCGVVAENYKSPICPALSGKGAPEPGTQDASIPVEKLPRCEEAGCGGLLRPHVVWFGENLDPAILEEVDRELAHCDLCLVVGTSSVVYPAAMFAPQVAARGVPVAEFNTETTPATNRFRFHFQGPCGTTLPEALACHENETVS
Assay: Inhibition of human recombinant N-terminal Strep2-tagged SIRT5 expressed in Escherichia coli BL21 (DE3) using Abz-GVLK(glutaryl)AY(NO2)GV-NH2 as substrate in presence of NAD+ by fluorescence assay
Residues, ends and D or L forms follow the SMILES beside them. *: point of attachment. X49 = O=C(O)[C@H](CC(=O)*)SCc1cccc(C(F)(F)F)c1; X50 = O=C(O)[C@H](CC(=O)*)Sc1cc(Cl)ccc1Cl; Bz = O=C(c1ccccc1)*
QUANTITY_NAME: IC50 (nM)
Numbers only here, please. The scale is nM.

CC(C)C[C@H](NC(=O)[C@@H](NC(=O)CNC(=O)c1ccccc1)C(C)C)C(=O)N[C@@H](CCCCNC(=O)C[C@H](Sc1cc(Cl)ccc1Cl)C(=O)O)C(=O)N[C@@H](CCC(=O)O)C(=O)N[C@@H](Cc1ccc(O)cc1)C(=O)NCC(=O)N[C@H](C(N)=O)C(C)C (Bz-GVLK(X50)EYGV-NH2) : 295

Okay, now this compound:
Documented IC50 of CC(C)C[C@H](NC(=O)[C@@H](NC(=O)CNC(=O)c1ccccc1)C(C)C)C(=O)N[C@@H](CCCCNC(=O)C[C@H](SCc1cccc(C(F)(F)F)c1)C(=O)O)C(=O)N[C@@H](CCC(=O)O)C(=O)N[C@@H](Cc1ccc(O)cc1)C(=O)NCC(=O)N[C@H](C(N)=O)C(C)C (Bz-GVLK(X49)EYGV-NH2) : 1120

----------
Target: NAD-dependent protein deacylase sirtuin-5, mitochondrial (Homo sapiens, UniProt Q9NXA8)
Experiment: Inhibition of human recombinant N-terminal Strep2-tagged SIRT5 expressed in Escherichia coli BL21 (DE3) using Abz-GVLK(glutaryl)AY(NO2)GV-NH2 as substrate in presence of NAD+ by fluorescence assay
Residues, ends and D or L forms follow the SMILES beside them. *: point of attachment. X11 = O=C(O)[C@H](CC(=O)*)SCc1cccc2ccccc12; X24 = O=C(O)[C@H](CC(=O)*)SCc1ccc(Cl)cc1Cl; X36 = O=C(O)[C@@H](CC(=O)*)Sc1ccc2ccccc2c1; X64 = O=C(O)[C@H](CC(=O)*)Sc1c(Cl)cccc1Cl; X33 = Cc1ccc(S[C@@H](CC(=O)*)C(=O)O)cc1C; X73 = O=C(O)[C@H](CC(=O)*)SCc1ccccc1Cl; Bz = O=C(c1ccccc1)*
Measured pIC50, listed per entry.
Interpret pIC50 as the negative base-10 log of the concentration measured in mol/L.

Worked examples follow.
CC(C)C[C@H](NC(=O)[C@@H](NC(=O)CNC(=O)c1ccccc1)C(C)C)C(=O)N[C@@H](CCCCNC(=O)C[C@H](SCc1cccc2ccccc12)C(=O)O)C(=O)N[C@@H](CCC(=O)O)C(=O)N[C@@H](Cc1ccc(O)cc1)C(=O)NCC(=O)N[C@H](C(N)=O)C(C)C (Bz-GVLK(X11)EYGV-NH2) : 7.81
CC(C)C[C@H](NC(=O)[C@@H](NC(=O)CNC(=O)c1ccccc1)C(C)C)C(=O)N[C@@H](CCCCNC(=O)C[C@@H](Sc1ccc2ccccc2c1)C(=O)O)C(=O)N[C@@H](CCC(=O)O)C(=O)N[C@@H](Cc1ccc(O)cc1)C(=O)NCC(=O)N[C@H](C(N)=O)C(C)C (Bz-GVLK(X36)EYGV-NH2) : 5.93
CC(C)C[C@H](NC(=O)[C@@H](NC(=O)CNC(=O)c1ccccc1)C(C)C)C(=O)N[C@@H](CCCCNC(=O)C[C@H](SCc1ccccc1Cl)C(=O)O)C(=O)N[C@@H](CCC(=O)O)C(=O)N[C@@H](Cc1ccc(O)cc1)C(=O)NCC(=O)N[C@H](C(N)=O)C(C)C (Bz-GVLK(X73)EYGV-NH2) : 6.27
CC(C)C[C@H](NC(=O)[C@@H](NC(=O)CNC(=O)c1ccccc1)C(C)C)C(=O)N[C@@H](CCCCNC(=O)C[C@H](Sc1c(Cl)cccc1Cl)C(=O)O)C(=O)N[C@@H](CCC(=O)O)C(=O)N[C@@H](Cc1ccc(O)cc1)C(=O)NCC(=O)N[C@H](C(N)=O)C(C)C (Bz-GVLK(X64)EYGV-NH2) : 6.24
CC(C)C[C@H](NC(=O)[C@@H](NC(=O)CNC(=O)c1ccccc1)C(C)C)C(=O)N[C@@H](CCCCNC(=O)C[C@H](SCc1ccc(Cl)cc1Cl)C(=O)O)C(=O)N[C@@H](CCC(=O)O)C(=O)N[C@@H](Cc1ccc(O)cc1)C(=O)NCC(=O)N[C@H](C(N)=O)C(C)C (Bz-GVLK(X24)EYGV-NH2) : 6.26

Okay, now this compound:
Documented pIC50 of Cc1ccc(S[C@@H](CC(=O)NCCCC[C@H](NC(=O)[C@H](CC(C)C)NC(=O)[C@@H](NC(=O)CNC(=O)c2ccccc2)C(C)C)C(=O)N[C@@H](CCC(=O)O)C(=O)N[C@@H](Cc2ccc(O)cc2)C(=O)NCC(=O)N[C@H](C(N)=O)C(C)C)C(=O)O)cc1C (Bz-GVLK(X33)EYGV-NH2) : 7.34
